- Test system: methicillin-resistant Staphylococcus aureus (MRSA)
- PROCEDURE SUMMARY: MIC determination by broth dilution assay against MRSA
- Type: cell-based
- RECORDED CONDITIONS: Staphylococcus aureus, MRSA; Table S5; against S. aureus; read-out: MIC
MEASURED PARAMETER: MIC (µg/mL)
Express the result in µg/mL but write the number alone.

Item: Cc1cc(Cl)ccc1NC(=O)C1=C(O)[C@@H]2[C@@H](c3ccccc3)O[C@@H](C(C)(C)C)N2C1=O (racemic) [12g] | MIC: 1

Item: CC(C)(C)[C@@H]1O[C@H](c2ccccc2)[C@H]2C(O)=C(C(=O)NC34CC5CC(CC(C5)C3)C4)C(=O)N21 (mixture of isomers) [12a] | MIC: 0.25

Item: CCCCCCCCCNC(=O)C1=C(O)[C@@H]2[C@@H](c3ccccc3)O[C@@H](C(C)(C)C)N2C1=O (racemic) [12q] | MIC: 0.49

Item: CCCCCCCCCCCCNC(=O)C1=C(O)[C@@H]2[C@@H](c3ccccc3)O[C@@H](C(C)(C)C)N2C1=O (racemic) [12r] | MIC: 0.49

Item: CC(C)(C)[C@@H]1O[C@H](c2ccccc2)[C@H]2C(O)=C(C(=O)Nc3ccc(Cl)cc3C(F)(F)F)C(=O)N21 (racemic) [12j] | MIC: 3.9

Item: Cc1ccc(NC(=O)C2=C(O)[C@@H]3[C@@H](c4ccccc4)O[C@@H](C(C)(C)C)N3C2=O)c(C)c1 (racemic) [12k] | MIC: 3.9

Item: CC(C)(C)[C@@H]1O[C@H](c2ccccc2)[C@H]2C(O)=C(C(=O)NC3CCCCC3)C(=O)N21 (racemic) [12n] | MIC: 1

----------
- Test system: methicillin-resistant Staphylococcus aureus (MRSA)
- PROCEDURE SUMMARY: MIC determination by broth dilution assay against MRSA
- Type: cell-based
- RECORDED CONDITIONS: Staphylococcus aureus, MRSA; Table S5; against S. aureus; read-out: MIC
MEASURED PARAMETER: MIC
Give me the value, and tack the unit on after it.

// returns MIC for CCCCCCNC(=O)C1=C(O)[C@@H]2[C@@H](c3ccccc3)O[C@@H](C(C)(C)C)N2C1=O (racemic) [12p] with methicillin-resistant Staphylococcus aureus (MRSA); value = 3.9 µg/mL

// returns MIC for Cc1ccc(NC(=O)C2=C(O)[C@@H]3[C@@H](c4ccccc4)O[C@@H](C(C)(C)C)N3C2=O)c(Cl)c1 (racemic) [12h] with methicillin-resistant Staphylococcus aureus (MRSA); value = 3.9 µg/mL

// returns MIC for Cc1cc(F)ccc1NC(=O)C1=C(O)[C@@H]2[C@@H](c3ccccc3)O[C@@H](C(C)(C)C)N2C1=O (racemic) [12l] with methicillin-resistant Staphylococcus aureus (MRSA); value = 1 µg/mL

// returns MIC for CC(C)(C)[C@@H]1O[C@H](c2ccccc2)[C@H]2C(O)=C(C(=O)Nc3ccc(C(F)(F)F)cc3Cl)C(=O)N21 (racemic) [12i] with methicillin-resistant Staphylococcus aureus (MRSA); value = 0.49 µg/mL

// returns MIC for CC(C)(C)[C@@H]1O[C@H](c2ccccc2)[C@H]2C(O)=C(C(=O)Nc3ccc(Br)cc3)C(=O)N21 (racemic) [12c] with methicillin-resistant Staphylococcus aureus (MRSA); value = 3.9 µg/mL

// returns MIC for CC(C)(C)[C@@H]1O[C@H](c2ccccc2)[C@H]2C(O)=C(C(=O)Nc3ccccc3)C(=O)N21 (racemic) [12b] with methicillin-resistant Staphylococcus aureus (MRSA); value = 7.8 µg/mL

// returns MIC for CC(C)(C)[C@@H]1O[C@H](c2ccccc2)[C@H]2C(O)=C(C(=O)NC3CCCCCC3)C(=O)N21 (racemic) [12o] with methicillin-resistant Staphylococcus aureus (MRSA); value = 1 µg/mL
